# target-entity: recombinant human M2 muscarinic acetylcholine receptor (Homo sapiens)
# Sequence (P08172 whole entry): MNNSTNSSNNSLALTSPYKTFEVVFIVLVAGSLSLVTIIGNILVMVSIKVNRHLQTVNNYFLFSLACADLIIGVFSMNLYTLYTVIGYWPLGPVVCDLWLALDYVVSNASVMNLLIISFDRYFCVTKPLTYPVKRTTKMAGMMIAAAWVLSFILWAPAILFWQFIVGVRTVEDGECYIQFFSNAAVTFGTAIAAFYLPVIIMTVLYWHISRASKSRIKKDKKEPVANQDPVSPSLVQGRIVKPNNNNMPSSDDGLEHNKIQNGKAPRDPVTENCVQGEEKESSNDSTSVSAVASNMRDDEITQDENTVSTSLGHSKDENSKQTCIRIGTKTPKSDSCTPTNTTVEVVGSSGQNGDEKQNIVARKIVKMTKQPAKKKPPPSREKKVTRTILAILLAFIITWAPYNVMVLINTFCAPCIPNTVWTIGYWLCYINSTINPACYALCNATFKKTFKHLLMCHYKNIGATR
# method-notes: Muscarinic M2 receptor radioligand binding
# measurement-parameters: 3H-N-Methylscopolamine 0.8 nM, CHO cell membranes
Give measured Ki for each item. Keep answers brief.
One number for each entry, in nM.

Please review the following examples before continuing.
1) CC(CN1c2ccccc2Sc2ccccc21)N(C)C (stereo not shown) [Promethazine, reference compound]: 26.4
2) COCCOCCOCCOCCOCCOCCOCCN(C)C(C)CN1c2ccccc2Sc2ccccc21 (stereo not shown) [mPEG7-N-Promethazine, mPEG7-N-promethazine]: 90
3) COCCOCCOCCOCCOCCN(C)C(C)CN1c2ccccc2Sc2ccccc21 (stereo not shown) [mPEG5-N-Promethazine, mPEG5-N-promethazine]: 817

Dear colleague, I am looking for the recorded Ki of the following compound: COCCOCCOCCOCCOCCOCCN(C)C(C)CN1c2ccccc2Sc2ccccc21 (stereo not shown) [mPEG6-N-Promethazine, mPEG6-N-promethazine]
337
